Tested on: Caco-2
experiment description: cell viability relative to DMSO; higher = less toxic
condition set: 72 h; 1 nM
Where a name gives a salt, the structure may show the parent alone.
quantity kind: cell viability (%)
One number for each entry, in %.

COc1cc(OC)c(/C=C2/C(=O)Nc3ccccc32)c(OC)c1 = 96.9
N=c1ccn2c(n1)O[C@H]1[C@H](O)[C@@H](CO)O[C@H]12 [Cyclocytidine HCl] = 88.4
CC(C)[C@@H](C)/C=C/[C@@H](C)[C@H]1CC[C@H]2/C(=C/C=C3\C[C@@H](O)CC[C@@H]3C)CCC[C@]12C [dihydrotachysterol] = 108

List cell viability for every entry below, keeping the order given.
1. Cc1cc(-n2c(=O)[nH]c(=O)n(C)c2=O)ccc1Oc1ccc(SC(F)(F)F)cc1
2. CCCCOc1cc(CC2CNC(=O)N2)ccc1OC (stereo not drawn)
3. CN(C)CCn1cc(S(=O)(=O)c2cccc(F)c2)c2cccnc21
4. CC(CNC(=O)c1cccnc1)NC(=O)c1cccnc1 (stereo not drawn)
5. O=c1c(-c2ccc(O)cc2)coc2c([C@@H]3O[C@H](CO)[C@@H](O)[C@H](O)[C@H]3O)c(O)ccc12

Completion:
104
97.3
98.2
97.3
122

List cell viability for every entry below, keeping the order given.
1. O=C(O)CCc1cc(C(=O)c2ccc(OC3CCCC3)cc2O)ccc1OCc1ccc2c(O)noc2c1
2. CN[C@H]1CN(c2ccc3c(=O)c(C(=O)O)cn(-c4nccs4)c3n2)C[C@@H]1OC
3. C[C@H](NC(=O)Cc1cc(F)cc(F)c1)C(=O)N[C@H](C(=O)OC(C)(C)C)c1ccccc1
4. COc1ccc(Cl)c(Nc2nc3ccccc3nc2NS(=O)(=O)c2cccc(NC(=O)C(C)(C)N)c2)c1
5. Cc1ccc(C23CNCC2C3)cc1 (stereo not drawn)
6. C#Cc1cccc(Nc2ncnc3cc(OC)c(OCCCCCCC(=O)NO)cc23)c1
7. COc1cc2c(cc1OC)C1CC(=O)C(CC(C)C)CN1CC2 (stereo not drawn)

Completion:
106
94.1
108
91.3
103
97
97.6

###

Tested on: Caco-2
experiment description: cell viability relative to DMSO; higher = less toxic
condition set: 72 h; 1000 nM
Structures can show the parent of a compound that is named as a salt.
quantity kind: cell viability (%)
One number for each entry, in %.

In the examples that follow, each entry is paired with its recorded cell viability.
CCOP(=S)(OCC)Oc1cc(C)nc(C(C)C)n1 [dimpylate] = 93
CCC(C/C=C/c1ccccc1)(c1ccccc1)N(C)CC1CC1 (configuration not stated) = 102
CC(C)(C)NCC(O)CSc1nc(-c2ccc(C(N)=O)s2)cs1 (configuration not stated) = 106
Cc1cc(/C=C/C#N)cc(C)c1Nc1ccnc(Nc2ccc(C#N)cc2)n1 = 87.3
CN(NC(=O)CC(=O)NN(C)C(=S)c1ccccc1)C(=S)c1ccccc1 = 9.7
N=c1ccn2c(n1)O[C@H]1[C@H](O)[C@@H](CO)O[C@H]12 [Cyclocytidine HCl] = 80.6

List cell viability for every entry below, keeping the order given.
1. CCCC[C@@H](C=O)NC(=O)[C@H](CC(C)C)NC(=O)OCc1ccccc1
2. COc1cc(OC)c(/C=C2/C(=O)Nc3ccccc32)c(OC)c1
3. C[S+]([O-])CCCCN=C=S (configuration not stated)
4. CCc1cc2c(cc1N1CCC(N3CCOCC3)CC1)C(C)(C)c1[nH]c3cc(C#N)ccc3c1C2=O
5. CC(=O)N(CC(O)CO)c1c(I)c(C(=O)NCCO)c(I)c(C(=O)NCC(O)CO)c1I (configuration not stated)
6. O=[N+]([O-])c1cn2c(n1)OC[C@@H](OCc1ccc(-c3ccc(OC(F)(F)F)cc3)nc1)C2
7. CC(C)(C)c1ccc(/C=C/C(=O)Nc2ccc3c(c2)OCCO3)cc1
8. CS(=O)(=O)N(Cc1ccco1)C[C@@H](O)Cn1c2ccccc2c2ccccc21

Completion:
1: 94.5; 2: 90.5; 3: 91.3; 4: 103; 5: 90.5; 6: 92.1; 7: 90.4; 8: 94.1

List cell viability for every entry below, keeping the order given.
1. COc1cccc(OC)c1OCCNC[C@H]1COc2ccccc2O1
2. COc1ccccc1C(=O)Nc1cc2c(cc1N1CCCC1)n(C)c(=O)n2C
3. c1ccc(CCCCN2CCC(c3ccccc3)CC2)cc1
4. CN1C(=O)OC(C)(C)C1=O
5. FC(F)(F)C(F)(F)C(F)(F)C(F)(F)C(F)(F)C(F)(F)C(F)(F)C(F)(F)Br
6. COP(=O)(OC)OC(c1ccc(Cl)cc1)P(=O)(OC)OC (configuration not stated) [mifobate]

Completion:
1. 106
2. 89.1
3. 86.1
4. 90
5. 103
6. 107

List cell viability for every entry below, keeping the order given.
1. NCC(O)c1ccc(O)cc1 (configuration not stated)
2. C#Cc1cccc(Nc2ncnc3cc(OC)c(OCCCCCCC(=O)NO)cc23)c1
3. Fc1ccc(-c2nc3n(c2-c2ccncc2)CCS3)cc1

Completion:
1: 100; 2: 81.8; 3: 89.4

List cell viability for every entry below, keeping the order given.
1. O=C(Nc1ccncc1)C(=O)c1cn(Cc2ccc(Cl)cc2)c2ccccc12
2. COc1ccc2ccc(=O)oc2c1CC=C(C)C
3. COc1cc(NS(C)(=O)=O)ccc1Nc1c2ccccc2nc2ccccc12
4. C=C[C@H]1CN2CC[C@H]1CC2C(OC(=O)OCC)c1ccnc2ccc(OC)cc12 (stereo in doubt) [quinine-ethyl-carbonate]
5. CCCCOc1cc(CC2CNC(=O)N2)ccc1OC (configuration not stated)
6. Oc1ccc(C2CNCCc3c2cc(O)c(O)c3Cl)cc1 (configuration not stated)
7. C[C@]12CCC(=O)C(O)=C1CC[C@@H]1[C@@H]2CC[C@]2(C)C(=O)CC[C@@H]12

Completion:
82.9
100
91.6
105
103
76.6
105

###

System: A549-ACE2 infected with SARS-CoV-2
experiment description: SARS-CoV-2 infection rate relative to DMSO; higher = more infection
condition set: 0.3 µM; 24 h
For each entry below, report its SARS-CoV-2 infection rate value.
Answers are plain numbers, in %.

CN(NC(=O)CC(=O)NN(C)C(=S)c1ccccc1)C(=S)c1ccccc1 [elesclomol] = 93
CN(C)CCOc1ccc(/C(=C(/CCCl)c2ccccc2)c2ccccc2)cc1 [toremifene] = 88
NC(=O)c1cnc(N[C@@H]2CCCC[C@@H]2N)nc1Nc1cccc(-n2nccn2)c1 = 104
COc1ccc(/C=C/C(=O)/C=C(O)/C=C/c2ccc(OC)c(OC)c2)cc1OC [ASC-J9] = 98
OC(c1cc(C(F)(F)F)nc2c(C(F)(F)F)cccc12)C1CCCCN1 (configuration not stated) [mefloquine] = 94

List SARS-CoV-2 infection rate for every entry below, keeping the order given.
1. Cc1[nH]c2ccccc2c1CCNC(=O)c1cccs1 [CK-636]
2. CC(C)COc1ccc(CNC(=O)N(Cc2ccc(F)cc2)C2CCN(C)CC2)cc1 [pimavanserin]

Completion:
1. 101
2. 100

###

System: HepG2
experiment description: cell viability relative to DMSO; higher = less toxic
condition set: 72 h; 100 nM
For each entry below, report its cell viability value.
Give bare numbers, in %.

In the examples that follow, each entry is paired with its recorded cell viability.
CCOC(=O)[C@H](CCc1ccccc1)N[C@H]1CS[C@H](c2cccs2)CN(CC(=O)O)C1=O = 108
C[N+](C)(C)[C@@H](Cc1c[nH]c(=S)[nH]1)C(=O)O = 102
CCC[N+]12[C@H](O)[C@@H](CC)[C@@H]3C[C@H]1[C@@H]1N(C)c4ccccc4[C@]14C[C@H]2[C@@H]3[C@H]4O = 92.3
COc1ccc(CCC(=O)Nc2nc3ccc(Cl)cc3s2)cc1OC = 96.3
CN(NC(=O)CC(=O)NN(C)C(=S)c1ccccc1)C(=S)c1ccccc1 = 69.2
CN1C(=O)C(N2CCCCC2)S/C1=C\C(=O)O (stereo not given) = 104
O=C(NCCS(=O)(=O)c1ccc(C(F)(F)F)cn1)c1ccc(Cl)cc1 = 117
CC[C@H](C)[C@@H]1NC(=O)[C@H](Cc2ccc(O)cc2)NC(=O)[C@@H](N)CSSC[C@@H](C(=O)N2CCC[C@H]2C(=O)N[C@@H](CC(C)C)C(=O)NCC(N)=O)NC(=O)[C@H](CC(N)=O)NC(=O)[C@H](CCC(N)=O)NC1=O = 105

List cell viability for every entry below, keeping the order given.
1. CCCNCCc1ccc(NS(=O)(=O)c2ccc(OC(F)(F)F)cc2)cc1
2. COc1cc(C(=S)N2CCOCC2)cc(OC)c1OC
3. O=C(Nc1ccncc1)C(=O)c1cn(Cc2ccc(Cl)cc2)c2ccccc12
4. C[C@H]1O[C@@H](O[C@H]2CC[C@@]3(C)[C@H](CC[C@@H]4[C@@H]3C[C@@H](O)[C@]3(C)[C@@H](C5=CC(=O)OC5)CC[C@]43O)C2)C[C@H](O)[C@@H]1O[C@H]1C[C@H](O)[C@H](O[C@H]2C[C@H](O)[C@H](O[C@@H]3O[C@H](CO)[C@@H](O)[C@H](O)[C@H]3O)[C@@H](C)O2)[C@@H](C)O1 [deslanoside]
5. CC(SC(=O)c1cccs1)C(=O)NCC(=O)O (stereo not given)
6. CS(=O)(=O)c1ccc(Oc2cc(F)cc(C#N)c2)c2c1[C@H](O)C(F)(F)C2

Completion:
1: 104; 2: 98.6; 3: 94.9; 4: 76.2; 5: 105; 6: 97.4

Prompt: Please look up its cell viability: CC(=O)O/N=C1\C(=O)N(Cc2cc(Cl)ccc2Cl)c2ccc(Cl)cc21
Completion: 104
